Molecular target: Potassium voltage-gated channel subfamily KQT member 1 (Homo sapiens)
Test: KCNQ1 potassium channel potentiators, confirmation, FluxOR thallium flux, CHO cells, duplicates (AID 493007)
Conditions: KCNQ1 cell line, FluxOR thallium flux fluorescence, at 10 µM, % of reference activator effect, buffer zero
Active and inactive are the calls of the source.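 Rule for the calls: active = potentiation averaged over duplicate wells exceeding buffer-only control mean by more than 3 SD; inactive = the rest.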
Labels: 1.0 for active, 0.0 for inactive

{"columns": ["molecule", "category-label"],
 "data": [
  ["COc1cccc(/C=N/n2c(SC)nnc2-c2ccccc2)c1O", 0.0],
  ["CC(C)c1ccc(NC(=O)C2CC(=O)N=C(N)S2)cc1 (stereo unspecified)", 1.0],
  ["CC(C)N(C(=O)CSc1ncnc2sc(-c3ccccc3)cc12)C(C)C", 0.0],
  ["CC1Oc2ccccc2N(CC(=O)N2CCCCCC2)C1=O (stereo unspecified)", 1.0],
  ["COc1cnc(-c2ccccn2)nc1Oc1ccccc1Cl", 0.0],
  ["O=C1C=C(NCc2ccccc2)c2ccccc2C1=O", 1.0]
]}
